The values you see were collected from patent US20160185837A1.

target: human GLP-1 receptor (human) (UniProt P43220); experiment: cell-based or functional assay
Sequence (P43220 24-463): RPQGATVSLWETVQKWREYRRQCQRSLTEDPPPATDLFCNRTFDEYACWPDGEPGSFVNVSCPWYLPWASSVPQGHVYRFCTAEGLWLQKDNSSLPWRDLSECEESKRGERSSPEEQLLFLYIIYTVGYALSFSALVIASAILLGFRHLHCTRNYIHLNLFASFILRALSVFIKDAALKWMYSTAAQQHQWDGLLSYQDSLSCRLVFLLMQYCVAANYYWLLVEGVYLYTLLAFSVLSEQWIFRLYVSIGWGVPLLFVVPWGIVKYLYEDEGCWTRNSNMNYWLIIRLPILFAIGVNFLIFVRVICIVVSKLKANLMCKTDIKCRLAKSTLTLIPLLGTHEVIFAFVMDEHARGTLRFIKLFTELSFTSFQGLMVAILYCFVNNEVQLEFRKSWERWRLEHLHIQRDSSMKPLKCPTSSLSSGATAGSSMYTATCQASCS
API: label(entry) gives class 1 if the entry's cAMP EC50 is strictly smaller than 0.2 nM; on equality or larger values it gives class 0.

1) IP368 (Fc fusion) YSEGTFTSDYRQAIDRQAIDEFIAWLLKGGGGGGGSGGGGSGGGGSGGGGSACPPC: class 0

Please turn your attention to the following entry.
Hello, I'm reviewing records and need to know if cAMP EC50 of IP289 (Fc fusion) YSEGTFTSDYSKLLEKEAERLFIEWLLKGPGGGGGSGGGGSGGGGSGGGGSATHTCPPC is below 0.2 nM. Could you check?
class 0
